Attribute: CC50
System: 786-0
Format: cell-based
STATED_CONDITIONS: Homo sapiens; 786-0; five dose; read-out: LC50 (the source's name)

{"TEST_SMILES": "CN(C)CCNc1nc2ccccc2c2c(=O)c3cc(Cl)ccc3sc12", "MEASUREMENT_LABEL": "CC50", "ENDPOINT_VALUE": "6.46 µM"}

Consider the compound NCCNc1nc2ccccc2c2c(=O)c3cc(Cl)ccc3sc12 tested on 786-0; state its CC50. 5.81 µM

Consider the compound O=c1c2cc(Cl)ccc2sc2c(NCc3ccccc3)nc3ccccc3c12 tested on 786-0; state its CC50. > 100 µM

Consider the compound CCNc1nc2ccccc2c2c(=O)c3cc(Cl)ccc3sc12 tested on 786-0; state its CC50. > 100 µM

* * *

Tested on: MALME-3M
Format: cell-based
STATED_CONDITIONS: MALME-3M; 10^−5 molar
Attribute: Growth percent
The reply must contain the numeric value and, after it, the unit.

Answered examples (5):
{"TEST_SMILES": "O=c1c2cc(Cl)ccc2sc2c(NCc3ccc4c(c3)OCO4)nc3ccccc3c12", "SYSTEM_TESTED": "MALME-3M", "Growth percent": "81.64%"}
{"TEST_SMILES": "COc1ccc(CCNc2nc3ccccc3c3c(=O)c4cc(Cl)ccc4sc23)cc1", "SYSTEM_TESTED": "MALME-3M", "Growth percent": "99.74%"}
{"TEST_SMILES": "CN(C)CCCNc1nc2ccccc2c2c(=O)c3cc(Cl)ccc3sc12", "SYSTEM_TESTED": "MALME-3M", "Growth percent": "100.91%"}
{"TEST_SMILES": "O=c1c2cc(Cl)ccc2sc2c(NCCN3CCOCC3)nc3ccccc3c12", "SYSTEM_TESTED": "MALME-3M", "Growth percent": "78.79%"}
{"TEST_SMILES": "O=c1c2cc(Cl)ccc2sc2c(NC3CCCCC3)nc3ccccc3c12", "SYSTEM_TESTED": "MALME-3M", "Growth percent": "93.42%"}

Recall and state the measured Growth percent for O=c1c2cc(Cl)ccc2sc2c(NCc3ccccc3)nc3ccccc3c12 . 77.59%

Recall and state the measured Growth percent for O=c1c2cc(Cl)ccc2sc2c(NCCCNCCO)nc3ccccc3c12 . −34.30%

Recall and state the measured Growth percent for O=c1c2cc(Cl)ccc2sc2c(NCCc3ccccc3)nc3ccccc3c12 . 122.61%

* * *

Tested on: ACHN
Format: cell-based
STATED_CONDITIONS: Homo sapiens; ACHN; five dose; read-out: LC50 (the source's name)
Attribute: CC50

Answered examples (3):
{"COMPOUND": "CCNc1nc2ccccc2c2c(=O)c3cc(Cl)ccc3sc12 [Compound N2]", "SYSTEM_TESTED": "ACHN", "CC50": "> 100 µM"}
{"COMPOUND": "CN(C)CCNc1nc2ccccc2c2c(=O)c3cc(Cl)ccc3sc12 [Compound N7]", "SYSTEM_TESTED": "ACHN", "CC50": "5.77 µM"}
{"COMPOUND": "NCCNc1nc2ccccc2c2c(=O)c3cc(Cl)ccc3sc12 [Compound N14]", "SYSTEM_TESTED": "ACHN", "CC50": "5.29 µM"}

Let us move to another entry and its CC50.
Recall and state the measured CC50 for O=c1c2cc(Cl)ccc2sc2c(NCc3ccccc3)nc3ccccc3c12 [Compound N25] . > 100 µM

* * *

Test system: HCT-116
Type: cell-based
STATED_CONDITIONS: HCT-116; 10^−5 molar
MEASUREMENT_LABEL: Growth percent (%)
Your answer is read as %, so omit the unit and give the number.

{"TEST_SMILES": "O=c1c2cc(Cl)ccc2sc2c(NCCc3ccccc3)nc3ccccc3c12", "SYSTEM_TESTED": "HCT-116", "Growth percent, %": 85.77}
{"TEST_SMILES": "COc1ccc(CCNc2nc3ccccc3c3c(=O)c4cc(Cl)ccc4sc23)cc1", "SYSTEM_TESTED": "HCT-116", "Growth percent, %": 98.46}
{"TEST_SMILES": "O=c1c2cc(Cl)ccc2sc2c(NCCN3CCOCC3)nc3ccccc3c12", "SYSTEM_TESTED": "HCT-116", "Growth percent, %": 81.64}
{"TEST_SMILES": "O=c1c2cc(Cl)ccc2sc2c(NC3CCCCC3)nc3ccccc3c12", "SYSTEM_TESTED": "HCT-116", "Growth percent, %": 65.37}
{"TEST_SMILES": "O=c1c2cc(Cl)ccc2sc2c(NCc3ccc4c(c3)OCO4)nc3ccccc3c12", "SYSTEM_TESTED": "HCT-116", "Growth percent, %": 69.98}

Recall and state the measured Growth percent for O=c1c2cc(Cl)ccc2sc2c(NCCCNCCO)nc3ccccc3c12 . −91.19

Recall and state the measured Growth percent for O=c1c2cc(Cl)ccc2sc2c(NCc3ccccc3)nc3ccccc3c12 . 66.87

Recall and state the measured Growth percent for CN(C)CCCNc1nc2ccccc2c2c(=O)c3cc(Cl)ccc3sc12 . 70.19

* * *

Tested on: ACHN
Type: cell-based
STATED_CONDITIONS: ACHN; 10^−5 molar
MEASUREMENT_LABEL: Growth percent (%)
Your answer is read as %, so omit the unit and give the number.

Answered examples (3):
{"TEST_SMILES": "O=c1c2cc(Cl)ccc2sc2c(NCCc3ccccc3)nc3ccccc3c12", "Growth percent, %": 90.85}
{"TEST_SMILES": "O=c1c2cc(Cl)ccc2sc2c(NCCCNCCO)nc3ccccc3c12", "Growth percent, %": "−96.96"}
{"TEST_SMILES": "O=c1c2cc(Cl)ccc2sc2c(NCc3ccc4c(c3)OCO4)nc3ccccc3c12", "Growth percent, %": 58.48}

Consider the compound O=c1c2cc(Cl)ccc2sc2c(NCc3ccccc3)nc3ccccc3c12 tested on ACHN; state its Growth percent. 51.82

Consider the compound COc1ccc(CCNc2nc3ccccc3c3c(=O)c4cc(Cl)ccc4sc23)cc1 tested on ACHN; state its Growth percent. 91.19

Consider the compound O=c1c2cc(Cl)ccc2sc2c(NCCN3CCOCC3)nc3ccccc3c12 tested on ACHN; state its Growth percent. 91.61

Consider the compound CN(C)CCCNc1nc2ccccc2c2c(=O)c3cc(Cl)ccc3sc12 tested on ACHN; state its Growth percent. 86.20

Consider the compound O=c1c2cc(Cl)ccc2sc2c(NC3CCCCC3)nc3ccccc3c12 tested on ACHN; state its Growth percent. 97.31

* * *

Attribute: TGI
Test system: ACHN
Assay type: cell-based
STATED_CONDITIONS: ACHN; five dose

Answered examples (4):
{"COMPOUND": "NCCNc1nc2ccccc2c2c(=O)c3cc(Cl)ccc3sc12 [Compound N14]", "SYSTEM_TESTED": "ACHN", "ENDPOINT_VALUE": "2.76 µM"}
{"COMPOUND": "CN(C)CCNc1nc2ccccc2c2c(=O)c3cc(Cl)ccc3sc12 [Compound N7]", "SYSTEM_TESTED": "ACHN", "ENDPOINT_VALUE": "3.07 µM"}
{"COMPOUND": "CCNc1nc2ccccc2c2c(=O)c3cc(Cl)ccc3sc12 [Compound N2]", "SYSTEM_TESTED": "ACHN", "ENDPOINT_VALUE": ">100 µM"}
{"COMPOUND": "O=c1c2cc(Cl)ccc2sc2c(NCCCNCCO)nc3ccccc3c12 [Compound N19]", "SYSTEM_TESTED": "ACHN", "ENDPOINT_VALUE": "3.22 µM"}

Let us move to another entry and its TGI.
Recall and state the measured TGI for O=c1c2cc(Cl)ccc2sc2c(NCc3ccccc3)nc3ccccc3c12 [Compound N25] . >100 µM

* * *

System: SK-OV-3
Assay type: cell-based
STATED_CONDITIONS: Ovarian cancer; 10^−5 molar; 48 hours; SRB
Attribute: Growth percent SK-OV-3
Your answer is read as %, so omit the unit and give the number.

Answered examples (9):
{"COMPOUND": "O=c1c2cc(Cl)ccc2sc2c(N3CCN(Cc4ccccc4)CC3)nc3ccccc3c12", "ENDPOINT_VALUE": 94.79}
{"COMPOUND": "CCC(CO)Nc1nc2ccccc2c2c(=O)c3cc(Cl)ccc3sc12 (stereo not shown)", "ENDPOINT_VALUE": 58.93}
{"COMPOUND": "CCNc1nc2ccccc2c2c(=O)c3cc(Cl)ccc3sc12", "ENDPOINT_VALUE": 28.90}
{"COMPOUND": "CCC(CC)Nc1nc2ccccc2c2c(=O)c3cc(Cl)ccc3sc12", "ENDPOINT_VALUE": 99.71}
{"COMPOUND": "CC(C)CC(C)Nc1nc2ccccc2c2c(=O)c3cc(Cl)ccc3sc12 (stereo not shown)", "ENDPOINT_VALUE": 86.70}
{"COMPOUND": "NCCNc1nc2ccccc2c2c(=O)c3cc(Cl)ccc3sc12", "ENDPOINT_VALUE": 12.25}
{"COMPOUND": "O=c1c2cc(Cl)ccc2sc2c(NCCO)nc3ccccc3c12", "ENDPOINT_VALUE": 104.57}
{"COMPOUND": "O=c1c2ccc(Cl)cc2sc2c(Cl)nc3ccccc3c12", "ENDPOINT_VALUE": 101.32}
{"COMPOUND": "CNc1nc2ccccc2c2c(=O)c3cc(Cl)ccc3sc12", "ENDPOINT_VALUE": 88.67}

Let us move to another entry and its Growth percent SK-OV-3.
Recall and state the measured Growth percent SK-OV-3 for CN(C)CCNc1nc2ccccc2c2c(=O)c3cc(Cl)ccc3sc12 . 70.10
